# test.target: UniProtKB Q12809
# Sequence (Q12809 whole entry): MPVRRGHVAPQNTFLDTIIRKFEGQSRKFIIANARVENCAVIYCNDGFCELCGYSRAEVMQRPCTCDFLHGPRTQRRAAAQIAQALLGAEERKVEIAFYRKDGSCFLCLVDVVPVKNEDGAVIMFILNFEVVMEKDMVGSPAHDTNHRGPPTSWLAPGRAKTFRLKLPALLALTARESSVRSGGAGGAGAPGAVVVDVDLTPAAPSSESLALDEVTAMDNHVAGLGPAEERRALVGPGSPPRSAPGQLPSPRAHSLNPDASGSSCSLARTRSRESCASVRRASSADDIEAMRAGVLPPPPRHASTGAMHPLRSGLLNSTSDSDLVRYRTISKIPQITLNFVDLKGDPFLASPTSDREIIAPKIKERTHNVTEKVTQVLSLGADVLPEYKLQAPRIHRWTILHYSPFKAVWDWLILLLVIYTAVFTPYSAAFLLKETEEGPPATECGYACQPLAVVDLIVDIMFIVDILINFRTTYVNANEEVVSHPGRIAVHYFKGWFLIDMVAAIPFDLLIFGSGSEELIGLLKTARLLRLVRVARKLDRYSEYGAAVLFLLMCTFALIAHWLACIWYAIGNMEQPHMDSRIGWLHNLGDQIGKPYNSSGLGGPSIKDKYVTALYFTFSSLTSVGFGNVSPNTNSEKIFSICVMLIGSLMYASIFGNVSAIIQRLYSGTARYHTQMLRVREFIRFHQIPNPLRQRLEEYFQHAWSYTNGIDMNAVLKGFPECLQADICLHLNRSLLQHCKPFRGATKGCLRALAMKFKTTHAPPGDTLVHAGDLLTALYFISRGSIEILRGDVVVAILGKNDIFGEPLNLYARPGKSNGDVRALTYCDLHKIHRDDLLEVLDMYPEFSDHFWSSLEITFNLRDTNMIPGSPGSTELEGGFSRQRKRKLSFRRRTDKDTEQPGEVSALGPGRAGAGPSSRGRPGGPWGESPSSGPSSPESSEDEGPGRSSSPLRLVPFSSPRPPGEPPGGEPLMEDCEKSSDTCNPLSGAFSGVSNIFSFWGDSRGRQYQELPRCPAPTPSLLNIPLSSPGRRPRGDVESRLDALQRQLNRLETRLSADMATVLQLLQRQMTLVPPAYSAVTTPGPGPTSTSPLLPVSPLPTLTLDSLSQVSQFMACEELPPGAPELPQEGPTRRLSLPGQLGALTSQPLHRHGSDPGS
# assay.comment: hERG safety evaluation by manual Patch-Clamp system
# Assay type: cell-based
# protocol.conditions: human, HEK293 cells stably expressing hERG, pH 7.35; at 30 μM
reported.metric: inhibition at 5 min, 30 µM
Lab note: write values as number then unit, every time.

# inhibition at 5 min, 30 µM (compound: C[C@@H]1Cc2cc(C(N)=O)cnc2N1 [Compound 11] ) is 15%

###

# assay.comment: Mouse PK studies of 11 (plasma)
# Format: in vivo, Female C57B16/N mice
# protocol.conditions: female, C57B16/N, mouse, plasma, po, 10 mg/kg, 10 mg/kg PO, formulation a; read-out: MRTInf—obs
reported.metric: MRT inf (h)
// note: answer is a bare numeric in h

# MRT inf (compound: C[C@@H]1Cc2cc(C(N)=O)cnc2N1 [Compound 11] ) is 2.21
